assay: yeast display, Sf9 membrane polyspecificity reagent, FACS + sequencing; frameworks hold sequencing errors
Quantity: polyreactivity (PSR sort gate)

[
  {
    "Sequence Text": "QVQLVESAAGLVQAGGSLRLSCAASGLILDEYAMGWYRQAPGKEMELVAAISWSGGSTYYADSVKGRFTISRDNAKNTVYLQMNSLKPEDTAVYYCAADRVWFSDNSYYYWGQGTQVTVSS",
    "Measurement": "high polyreactivity"
  },
  {
    "Sequence Text": "QVQLVESGGGLVHAGGSIRLSCAASGRIFDYNVMGWYRQAQGTERELVAAISWDGDSTYYADSVKGRFTISRDNAKHTVYLQKNSLKPEDTAVYYCNRVEGRTRWADEMNYWGQGTQVTVSS",
    "Measurement": "low polyreactivity"
  },
  {
    "Sequence Text": "QVQLVESGGGLVQAGGSLRLSCAASGRTFDPNAMGWYRPAPGKERELVAAISSSAGSTYYADSVKGRFTISRDNAKNTVYLQMNSLNPEDPALYFCAAGSGTFVTRYRYGYWGQGTQVTVSS",
    "Measurement": "high polyreactivity"
  },
  {
    "Sequence Text": "QVQLVESRGGLVQAGGSLRLSCAASGSTFFRYAMGWYRQAPGKERELVAAITDSDGSTYYADSVKGRFTISRDNAKNTVYLQMNSLKPEDTAVYYCAAAHPDGWTVYNPQGGAWYDYWGQGSQVTVSS",
    "Measurement": "low polyreactivity"
  },
  {
    "Sequence Text": "QVQLVESGGGLVQAGGSLRLSCAASGGIIGAYVMGWYIQAAGKERELVAAISSGGDTNYADTVKGRFTISRDNAKNTVYIQMNSQKPEDTAVSYCAKDPYWTELYPSGDYWGQGTQVTVSS",
    "Measurement": "low polyreactivity"
  },
  {
    "Sequence Text": "QVQLVESGGGLVQAGGSLRLSCAASGRTFSRYAMGWYRQAPGKERELVAAISRSGGITYYADSVKGRFTISRDYAKNTVYLQMNSLKPEDTAVYYCAKVYPRVGYDYWGQGTQVTVSS",
    "Measurement": "high polyreactivity"
  },
  {
    "Sequence Text": "QVQLVESGGGLVQAGGSLRLTCDASGSIFSVYAMGWYRQAPGKERELVAAITSSGGITYYADSVKGRFTISRDNSKNTVYLQMNSLKPEDTAVYYCATDRVLHYWVLSMDYWGQGTQVTVSS",
    "Measurement": "low polyreactivity"
  },
  {
    "Sequence Text": "QVQLEESGGGLVQAGGSIRLSCAASGSIFYKYVMGCYRQAPGKERELVAAISRGGGSTYYADSVKGRFTISRDNSKNTVYLQMNSLKPEDTAVYYCNAVVRPRYGHGFDHWGQGTQVTVSS",
    "Measurement": "high polyreactivity"
  },
  {
    "Sequence Text": "QVQIVESGGGLVQAGGSLRLSCAASGRIFKLYAMGWSRQAPGKERELVAAITRRGGSTSYADSVKGRFTISRDNAKNTVYLQMNSLKPEDTAVYYCAASYTGRTVVQGYEYWGQGTQVTVSS",
    "Measurement": "high polyreactivity"
  },
  {
    "Sequence Text": "QVQLVESVGGLVQAGDSLPLSCAPSAYIFRAYAMGWFRQAPGKASELVAAISSRGGSTYYADSVKGRFTISRDNATQTVYLQMNSLKPEDTAVYYCAAAYRQPYIGYGYWGQGTQVTVTS",
    "Measurement": "high polyreactivity"
  },
  {
    "Sequence Text": "QVQLLDSGGGLVQAGGSLRLSCAASGFTFDDYDKGWYRPPPGKERELVAAISWSGGSTYYADSVKGRFTISRDNAKNTVYLQMNSLKPEDTAVYYCAAERSYGGFDYWGQGTQVTVSS",
    "Measurement": "low polyreactivity"
  }
]

====

experiment: yeast display, Sf9 membrane polyspecificity reagent, FACS + sequencing; frameworks hold sequencing errors

[
  {
    "Sequence Text": "QVQLVESGGGLVQAGGSLRLSCADSARTFYYNTKGWYRQAPGKERELVASISGSGGRTYYADSVKGRFTISRDNAKNTVYLQMNSLKPEDTAVYYFAAGSIRYRFPFGYDYWGQGTQVTLSS",
    "polyreactivity (PSR sort gate)": "high polyreactivity"
  },
  {
    "Sequence Text": "QVQLVESGGGLVQAGGSLRLSCAASGLTFPSYAMGWYRQAPGKERELVASISSGGSTTYADSVKGRFTISRDNAKNTVYLQMNSLKPEDTAVYYCAAGRYVLRRGYYYWGQGTQVTVSS",
    "polyreactivity (PSR sort gate)": "high polyreactivity"
  },
  {
    "Sequence Text": "QVQLVESGGGLVQAGGSLRLSCAASGGIFGSYAMGWYRQAPGKERELVADITQSGGRTRYADSVKGRFTISRDNAKNTVYLQMNSLKPEDSAVYYCNAQDVDSGDDYDYWGQGTQVTVSS",
    "polyreactivity (PSR sort gate)": "low polyreactivity"
  },
  {
    "Sequence Text": "QVQLQESGGGLVQAGGSLRLSCAASGYISYLDFMGWYRQAPGKERELVAGITTGATTNYADSVKGRFTISRDNAKNIVYHQMNSLKPEDTAVYYCAVIGGDTRGHPYWGQGSQVTVSS",
    "polyreactivity (PSR sort gate)": "low polyreactivity"
  },
  {
    "Sequence Text": "QVQLVESGGGLDQAGGSLRLSCAASGSTFVANAMGWYRQAPGKERELVAAITYRGGSTYYADSVKGRFTISRDNAKNSVYLQMNSLKPEDTAVYYCNTVYYVASASYYWRYDYWGQGTQVTVSS",
    "polyreactivity (PSR sort gate)": "high polyreactivity"
  },
  {
    "Sequence Text": "QVQLVESGGCLVQAGGSLRLSCAAYGSIFGGNAMGWYRQAPRKERELVAAITQSGDRTYYADSVKGRFTISRDNANNTFYFQMNSLKPEDTAVYYSAARSPRKYGSIGYYWGQGTQVTVSS",
    "polyreactivity (PSR sort gate)": "high polyreactivity"
  },
  {
    "Sequence Text": "QVQLVESGGGLVQAGGSLRLSCAASGRIFNYNAMGWYRQAPGKERELVAAIDWSGGRTYYADSVKGRFTISRDNAKNTVYLQMNSLKPEDTAVYYCNTVGYSLRLRTGGYWGQGTQVTVSS",
    "polyreactivity (PSR sort gate)": "high polyreactivity"
  },
  {
    "Sequence Text": "QVQLVESGGGLVQAGGSLRLSCAASGYTLRPNGMGWYRPAPGKERELVAAISSGGSTYYADSVKGRFTISRDNAKNTVYLQMNSLKPEDTAVYYCAAEYWYDYWGQGTQVTVSS",
    "polyreactivity (PSR sort gate)": "low polyreactivity"
  },
  {
    "Sequence Text": "QVQLVESGGGLVQAGGSLRLSCAASGRIFYNYAMGWYRQAPGKERELVAAISGSGGSTYYADSVKGRFTISRDNAKKTVYLQMNSLKPEDTAVYYCSTSGPQYYSRNFDYWGQGTQVTVSS",
    "polyreactivity (PSR sort gate)": "low polyreactivity"
  },
  {
    "Sequence Text": "QDQLVESGGGLVQAGGSLRLTCAASGSIFGWYAMGWYRQAPGKEMELFAAITNSGGSTYYADSVKGRFTISRDNAKKTVYIQMNSLKPEETAVYYCAAESWIRRWYGGGKKYDYWGQGTQVTVSS",
    "polyreactivity (PSR sort gate)": "high polyreactivity"
  },
  {
    "Sequence Text": "QVQLVESGGGLVQAGGSLRLSCAASGRIFSYYAMGWYRPAPGTERELVAAITRAGGTNYADSVKGRFTISRDNAKNTVYLQMNSVKPEDTAVYYCAADRSRYRYNAPRYAYDYWGQGTQVTVSS",
    "polyreactivity (PSR sort gate)": "high polyreactivity"
  },
  {
    "Sequence Text": "QVQIVESGGGLVQAGGSLRLSCAASGRIFDDYAMGWYRQAPGKEREFVAAISTSGGSTYYADSVMGRFTISRDNAKNTVYLKMNSLKPEDTAVYYCNKYGYYGWFGSRYWHDYWGQGTQVTVAS",
    "polyreactivity (PSR sort gate)": "high polyreactivity"
  },
  {
    "Sequence Text": "QVQLVESGGGLVQAGGSLRLSCAASGSIYGYYAMGWSRQAPGKERELVAAISWSDGSTYYADSVKGRFTISRDNAKNTVYLQMNSLKPEDTAVYYCAARFTPYITSDDGHYDYWGQGTQVTVSS",
    "polyreactivity (PSR sort gate)": "low polyreactivity"
  },
  {
    "Sequence Text": "QVQLVESGGGLVQAGGSLRLSSADSGLTIKYYAMGWYRQAPGKERELVASILQSGSSTYYADSVKGRFTISRDYAKNTFYLQMNSMKPEDTAVYYCSAPRYCRSYGYDYWGQGTQVTVSS",
    "polyreactivity (PSR sort gate)": "high polyreactivity"
  },
  {
    "Sequence Text": "QVQLVESGGGLFQAGGSLRLSCAASGYIFRSYAMGGYRQAPGKERELVAAITRSGGSTYYADSVKGRFTISRDNAKNTVYFQMNSLKPEDTAVYYCAVLPRGSNGMDYCGQGTQVTVSS",
    "polyreactivity (PSR sort gate)": "low polyreactivity"
  },
  {
    "Sequence Text": "QVQLVESGGGLVQPGGSLRLSSAASGITFPDYAMGWYRKAPGKERELVATITSSGGRTYYAHSVKGRFTISRDNAKNTVYLQMKSLKTEDTAVYYCAARRAYIRTLYYWGQGTQVTVSS",
    "polyreactivity (PSR sort gate)": "high polyreactivity"
  },
  {
    "Sequence Text": "QVQLVESGGGLVQAGGSLRLSCAASGFIFFPYTMGWYRQAPGKERELVAAITNGGSTSYADSVKGRFTISRDNAKNTVYLQMNSLKPEDTAVYYCAADLGRNLLHTFYYWGQGTQVTVSS",
    "polyreactivity (PSR sort gate)": "low polyreactivity"
  },
  {
    "Sequence Text": "QVQLVESGGGLVQAGGSLRLSCAASGRTFGYYAMGWYRQAPGKERELVAAISSSGGSTYYADSVKGRFTISRDNAKNTVYLQMNSLKPEDTAVYYCAARFANGGGYWGQGTQVTVSS",
    "polyreactivity (PSR sort gate)": "high polyreactivity"
  },
  {
    "Sequence Text": "QVQLVESGGGLVQAGGSLRLSCAASGYTFQYNDMGWYRQAPGKERELVAGISIGGSTNYADSVKGRFTISRDNAKNTVYLQMNSLKPEDTAVYYCAARTLWFPGTTSTSVGYKYGYWGQGTQVTVSS",
    "polyreactivity (PSR sort gate)": "low polyreactivity"
  },
  {
    "Sequence Text": "QVQLVESGGGLVQAGGSLRLSCAASGRTFQNNAMGWYRQAPGKERELVAAISRSGASTYYADSVKGRFTISRDNAKNTVYLQMNSLKPEDTAVYYCAARYQRTAYDYWGQGTQVTVSS",
    "polyreactivity (PSR sort gate)": "low polyreactivity"
  },
  {
    "Sequence Text": "QVQLVESGGGLVQAGGSLRLSCAASGRIFGHYAMGWYRQAPGKERELVAAISRGGSTYYADSVKGRFTISRDNAKNTVYLQMNSLKPEDTAVYYCNTTKAYGSLWWRGDYWGQGTQVTVSA",
    "polyreactivity (PSR sort gate)": "high polyreactivity"
  }
]
